Target: T1, LHD29 chainB, split luciferase reporter construct
T1 construct: not shown: N-terminal Strep-tag and sfGFP; GS-linker and smBiT or lgBiT
T1 chain: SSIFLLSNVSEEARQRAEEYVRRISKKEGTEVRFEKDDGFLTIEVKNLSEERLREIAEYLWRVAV
Test: split luciferase; affinity of the interface as measured in isolation, used to simulate the ternary complex ABC
Readout name: pKd
Please keep in mind that pKd is minus log10 of the molar concentration; only the number is needed.

# pKd (binder: LHD29 chainA, split luciferase reporter construct (designed binder, not shown: N-terminal Strep-tag and sfGFP; GS-linker and smBiT or lgBiT) TWQWVLINISEEARQRIEEYVRRISKKEGTEVHFEKDDGVLHIRVKNLHEKRAREIHEYAKRVIL ) is 7.30
